Experiment: Hemolytic activity against human RBC assessed as hemolysis measured after 45 mins
Format: ADME, tissue-based, Erythrocyte
Conditions: red blood cells (RBC), read-out: Activity
experimental.readout: hemolysis at 0.75 h (%)
Hi! Could you send only the number? It should be in %, unit omitted.

### Prompt Report hemolysis at 0.75 h for CCCCCCc1ccc(-c2ccc([S@@](=N)(=O)N3CCC[C@H]3C(=O)N[C@H](C(=O)N[C@@H](C)C(=O)NC(CC(N)=O)C(=O)N[C@@H](C)B3O[C@@H]4C[C@H]5C[C@H](C5(C)C)[C@]4(C)O3)[C@@H](C)O)cc2)cc1 (mixture of isomers) please.
### Response 0.35

### Prompt Report hemolysis at 0.75 h for CCCCCCCCCCCCS(=O)(=O)N1CCC[C@H]1C(=O)N[C@H](C(=O)N[C@@H](C)C(=O)NC(CC(N)=O)C(=O)N[C@@H](C)B1O[C@@H]2C[C@H]3C[C@H](C3(C)C)[C@]2(C)O1)[C@@H](C)O (mixture of isomers) please.
### Response 0.1

### Prompt Report hemolysis at 0.75 h for CCCCCCc1ccc(-c2ccc(S(=O)(=NCCN)N3CCC[C@H]3C(=O)N[C@H](C(=O)N[C@@H](C)C(=O)NC(CC(N)=O)C(=O)N[C@@H](C)B3O[C@@H]4C[C@H]5C[C@H](C5(C)C)[C@]4(C)O3)[C@@H](C)O)cc2)cc1 (stereo not given in full) please.
### Response 5.32

### Prompt Report hemolysis at 0.75 h for CCCCCCc1ccc(-c2ccc(S(=O)(=O)N3CCC[C@H]3C(=O)N[C@H](C(=O)N[C@@H](C)C(=O)NC(CC(N)=O)C(=O)N[C@@H](C)B3O[C@@H]4C[C@H]5C[C@H](C5(C)C)[C@]4(C)O3)[C@@H](C)O)cc2)cc1 (mixture of isomers) please.
### Response 14.5

### Prompt Report hemolysis at 0.75 h for CCCCCCc1ccc(-c2ccc([S@](=N)(=O)N3CCC[C@H]3C(=O)N[C@H](C(=O)N[C@@H](C)C(=O)NC(CC(N)=O)C(=O)N[C@@H](C)B3O[C@@H]4C[C@H]5C[C@H](C5(C)C)[C@]4(C)O3)[C@@H](C)O)cc2)cc1 (mixture of isomers) please.
### Response 2.15

----------
Assay: Inhibition of Escherichia coli LepB using dabcyl-VEVGGTATA GFSPRGLE-EDANS and dabcyl-KLTGFTVKPVQAIA GYEILE-EDANS-OH as substrates preincubated for 10 mins followed by substrate addition by FRET assay
experimental.readout: pIC50
Lab note: report pIC50 as minus log10 of the concentration in molar units, number only.

### Prompt Report pIC50 for CCCCCCCCCCCCS(=O)(=O)N1CCC[C@H]1C(=O)N[C@H](C(=O)N[C@@H](C)C(=O)NC(CC(N)=O)C(=O)N[C@@H](C)B1O[C@@H]2C[C@H]3C[C@H](C3(C)C)[C@]2(C)O1)[C@@H](C)O (mixture of isomers) please.
### Response 7.25

### Prompt Report pIC50 for CCCCCCc1ccc(-c2ccc([S@](=N)(=O)N3CCC[C@H]3C(=O)N[C@H](C(=O)N[C@@H](C)C(=O)NC(CC(N)=O)C(=O)N[C@@H](C)B3O[C@@H]4C[C@H]5C[C@H](C5(C)C)[C@]4(C)O3)[C@@H](C)O)cc2)cc1 (mixture of isomers) please.
### Response 5.97

### Prompt Report pIC50 for CCCCCCc1ccc(-c2ccc(S(=O)(=O)N3CCC[C@H]3C(=O)N[C@H](C(=O)N[C@@H](C)C(=O)NC(CC(N)=O)C(=O)N[C@@H](C)B3O[C@@H]4C[C@H]5C[C@H](C5(C)C)[C@]4(C)O3)[C@@H](C)O)cc2)cc1 (mixture of isomers) please.
### Response 7.15

### Prompt Report pIC50 for CCCCCCc1ccc(-c2ccc(S(=O)(=NCCN)N3CCC[C@H]3C(=O)N[C@H](C(=O)N[C@@H](C)C(=O)NC(CC(N)=O)C(=O)N[C@@H](C)B3O[C@@H]4C[C@H]5C[C@H](C5(C)C)[C@]4(C)O3)[C@@H](C)O)cc2)cc1 (stereo not given in full) please.
### Response 6.88

### Prompt Report pIC50 for CCCCCCc1ccc(-c2ccc([S@@](=N)(=O)N3CCC[C@H]3C(=O)N[C@H](C(=O)N[C@@H](C)C(=O)NC(CC(N)=O)C(=O)N[C@@H](C)B3O[C@@H]4C[C@H]5C[C@H](C5(C)C)[C@]4(C)O3)[C@@H](C)O)cc2)cc1 (mixture of isomers) please.
### Response 5.95
